Molecular target: LXRβ (Homo sapiens)
Assay: LXR Gal4 reporter transient transfection assay (mammalian two-hybrid, HEK293), LXRβ
Type: cell-based
Parameters: LXRβ (amino acids 156-461); expressed in transfected cells; host or cells: HEK293
Settings: full length (FL) LXRβ, HEK293; read-out: FL-M2H Gal4β
Experimental: LXRα and LXRβ activity status was determined via detection of interaction with coactivator and corepressor proteins in mammalian two-hybrid experiments (M2H). […] As cofactors, domains of either the steroid receptor coactivator 1 (SRC1; amino acids 552-887; SEQ ID NO:5) or of the corepressor NCoR (amino acids 1906-2312; NP006302; SEQ ID NO:6) were expressed as fusions to the DNA binding domain of the yeast transcription factor GAL4 (from pCMV-BD; Stratagene). […]
Parameter Measured: EC50

Example cases with answers are listed next.
O=C(O)c1ccc(-c2cccc(-c3c(-c4ncccc4C(F)(F)F)c4cc(F)ccc4n3S(=O)(=O)c3ccc(C(F)F)cc3)c2)c(Cl)c1 :: < 100 nM
Cc1cc(S(=O)(=O)n2c(-c3cccc(-c4ccc(C(=O)O)cc4Cl)c3)c(-c3ccsc3C#N)c3cc(F)ccc32)ccc1F :: < 100 nM
N#Cc1cccc(C#N)c1-c1c(-c2cccc([C@H]3CC[C@H](C(=O)O)CC3)c2)n(S(=O)(=O)c2ccc(C(F)F)cc2)c2ccc(F)cc12 :: < 100 nM

[Q] Entry N#Cc1ccccc1-c1c(-c2cccc(-c3ccc(C(=O)O)cc3Cl)c2)n(S(=O)(=O)c2ccc(C(F)F)cc2)c2cnccc12 : reported EC50 = ?
[A] < 100 nM

[Q] Fill in the blank: the reported EC50 of O=C(O)c1ccc(-c2cccc(-c3c(-c4ccccc4C4COC4)c4cnccc4n3S(=O)(=O)c3ccc(C(F)F)cc3)c2)c(Cl)c1 is ____.
[A] < 100 nM

[Q] Item under review: O=C(O)c1ccc(-c2cccc(-c3c(-c4ccsc4C(F)F)c4cc(F)ccc4n3S(=O)(=O)c3ccc(Cl)cc3)c2)c(Cl)c1 . Reported EC50?
[A] < 100 nM

----------
Listed here: items and their measured pEC50.
molecular target: LXRβ (Homo sapiens, UniProt P55055); assay: LXR Gal4 reporter transient transfection assay (mammalian two-hybrid, HEK293), LXRβ; assay type: cell-based; design: LXRβ (amino acids 156-461); expressed in transfected cells; host or cells: HEK293; conditions: full length (FL) LXRβ, HEK293; read-out: FL-M2H Gal4β
pEC50: −log10 of the molar value.

Below are worked cases with known answers.
N#Cc1sccc1-c1c(-c2cccc(-c3ccc(C(=O)O)cc3)c2)n(S(=O)(=O)c2ccc3c(c2)CCC3)c2ccc(F)cc12 [23/3] :: > 7.00
O=C(O)c1ccc(-c2cccc(-c3c(-c4cccc5oncc45)c4cc(F)ccc4n3S(=O)(=O)c3ccc(C(F)F)cc3)c2)c(Cl)c1 [3/69] :: 6.00 to 7.00
Cc1ccc(S(=O)(=O)n2c(-c3cccc(-c4cc(C(=O)O)n[nH]4)c3)c(-c3ccsc3C#N)c3cc(F)ccc32)cc1 [12/6] :: 5.00 to 6.00

[Q] Dear colleague, I am looking for the recorded pEC50 of the following molecule: Cc1ccc(S(=O)(=O)n2c(-c3cccc(-c4ccc(C(=O)O)nc4C)c3)c(-c3ccsc3C#N)c3cc(F)ccc32)cc1 [36/1]
[A] > 7.00

[Q] Need pEC50 of Cc1ccc(S(=O)(=O)n2c(-c3cccc(-c4ccc(C(=O)O)cc4Cl)c3)c(-c3cc(C)ccc3C#N)c3cc(F)ccc32)cc1 [11/5] , thanks.
[A] > 7.00

[Q] // pEC50 lookup, key: N#Cc1sccc1-c1c(-c2cccc(-c3ccc(C(=O)O)cc3Cl)c2)n(S(=O)(=O)c2ccc(Cl)cc2)c2ccc(F)cc12 [3/57]
[A] > 7.00

[Q] Find the recorded pEC50 belonging to O=C(O)c1ccc(-c2cccc(-c3c(-c4ccsc4C4COC4)c4cc(F)ccc4n3S(=O)(=O)c3ccc(C(F)F)cc3)c2)c(Cl)c1 [3/63] and report it.
[A] > 7.00

----------
experiment: Phase 1 study, MAD cohorts: plasma pharmacokinetics; type: in vivo, human; conditions: both sexes, human, plasma, oral, 12 mg, healthy subjects, MAD Day 14, 12 mg, fed; median
Parameter Measured: Tmax (h)
Write down the numeric answer in h and omit the unit.

[Q] Any idea what Tmax was measured for N#Cc1cccc(C#N)c1-c1c(-c2cccc(-c3ccc(C(=O)NCC(=O)O)cc3Cl)c2)n(S(=O)(=O)c2ccc(C(F)F)cc2)c2ccc(F)cc12 ?
[A] 3.5

----------
Molecular target: UniProt P55055
Sequence (P55055 1-460): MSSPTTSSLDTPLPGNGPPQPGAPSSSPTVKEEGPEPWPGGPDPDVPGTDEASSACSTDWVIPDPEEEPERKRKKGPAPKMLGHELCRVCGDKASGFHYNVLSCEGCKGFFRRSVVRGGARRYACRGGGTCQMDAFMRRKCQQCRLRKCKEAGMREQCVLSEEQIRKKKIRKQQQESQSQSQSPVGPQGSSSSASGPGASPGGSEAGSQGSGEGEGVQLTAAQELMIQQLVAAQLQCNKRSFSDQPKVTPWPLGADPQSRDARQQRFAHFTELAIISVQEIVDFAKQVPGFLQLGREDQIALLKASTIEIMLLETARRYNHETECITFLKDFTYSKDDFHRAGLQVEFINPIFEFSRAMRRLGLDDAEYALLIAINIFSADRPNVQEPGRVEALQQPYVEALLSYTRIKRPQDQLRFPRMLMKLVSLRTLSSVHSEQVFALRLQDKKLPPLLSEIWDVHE
Experiment: LXR Gal4 reporter transient transfection assay (mammalian two-hybrid, HEK293), LXRβ
Assay type: cell-based
Parameters: LXRβ (amino acids 156-461); expressed in transfected cells; host or cells: HEK293
Settings: full length (FL) LXRβ, HEK293; read-out: FL-M2H Gal4β
pEC50: −log10 of the molar value.
Measured pEC50 values are reported for all entries that follow.

Cc1ccc(S(=O)(=O)n2c(-c3cccc(-c4ccc(C(=O)O)c(F)c4Cl)c3)c(-c3ccsc3C#N)c3cc(F)ccc32)cc1 [12/3] :: > 7.00
Cc1ccc(S(=O)(=O)n2c(-c3cccc(-c4ccc(C(C(=O)O)N(C)C)cc4Cl)c3)c(-c3ccsc3C#N)c3cc(F)ccc32)cc1 (stereo not drawn) [Compound 3] :: > 7.00

With those in mind, consider the next compound.
[Q] Could you share which pEC50 value was measured for Cc1ccc(S(=O)(=O)n2c(-c3cccc(-c4cc(C(=O)O)nn4C(C)C)c3)c(-c3ccsc3C#N)c3cc(F)ccc32)cc1 [12/8] ?
[A] 6.00 to 7.00

----------
assay: Phase 1 study, SAD cohorts: plasma pharmacokinetics; type: in vivo, human; conditions: both sexes, human, oral, Day 1, 0.5 mg, plasma, median
Parameter Measured: Tmax (h)
Kindly provide the numeric value in h only, without the unit symbol.

[Q] State the recorded Tmax for this entry: N#Cc1cccc(C#N)c1-c1c(-c2cccc(-c3ccc(C(=O)NCC(=O)O)cc3Cl)c2)n(S(=O)(=O)c2ccc(C(F)F)cc2)c2ccc(F)cc12 [Compound 21/3]
[A] 3.5

----------
assay: Phase 1 study, SAD cohorts: plasma pharmacokinetics; format: in vivo, human; conditions: both sexes, human, oral, Day 1, 6 mg, plasma, mean, read-out: Cmax
Parameter Measured: Cmax (ng/mL)
Supply the numeric figure in ng/mL, leaving out any unit text.

[Q] Name the recorded Cmax for N#Cc1cccc(C#N)c1-c1c(-c2cccc(-c3ccc(C(=O)NCC(=O)O)cc3Cl)c2)n(S(=O)(=O)c2ccc(C(F)F)cc2)c2ccc(F)cc12 .
[A] 3.33

----------
Entries and their pEC50 values follow.
Target: LXRα (Homo sapiens)
Sequence (Q13133 whole entry, the tested form may be a part): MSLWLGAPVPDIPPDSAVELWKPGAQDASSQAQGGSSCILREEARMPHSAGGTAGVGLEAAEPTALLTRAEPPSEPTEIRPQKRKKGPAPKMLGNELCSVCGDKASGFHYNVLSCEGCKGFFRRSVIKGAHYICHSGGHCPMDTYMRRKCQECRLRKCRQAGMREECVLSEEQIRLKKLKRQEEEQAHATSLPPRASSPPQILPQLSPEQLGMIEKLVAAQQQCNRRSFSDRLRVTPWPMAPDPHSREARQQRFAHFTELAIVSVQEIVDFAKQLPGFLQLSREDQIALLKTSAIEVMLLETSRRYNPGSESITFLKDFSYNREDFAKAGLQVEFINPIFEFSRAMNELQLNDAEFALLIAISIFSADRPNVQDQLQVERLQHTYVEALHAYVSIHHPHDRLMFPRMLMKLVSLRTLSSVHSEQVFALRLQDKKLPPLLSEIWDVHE
Experiment: LXR Gal4 reporter transient transfection assay (mammalian two-hybrid, HEK293), LXRα
Type: cell-based
Parameters: expressed in transfected cells; host or cells: HEK293
Conditions: full length (FL) LXRα, HEK293; read-out: FL-M2H Gal4α
Procedure: LXRα and LXRβ activity status was determined via detection of interaction with coactivator and corepressor proteins in mammalian two-hybrid experiments (M2H). […] As cofactors, domains of either the steroid receptor coactivator 1 (SRC1; amino acids 552-887; SEQ ID NO:5) or of the corepressor NCoR (amino acids 1906-2312; NP006302; SEQ ID NO:6) were expressed as fusions to the DNA binding domain of the yeast transcription factor GAL4 (from pCMV-BD; Stratagene). […]
pEC50: −log10 of the molar value.

Recorded pEC50, per entry:
Cc1ccc(S(=O)(=O)n2c(-c3cccc(-c4cnc(C(=O)O)cc4C)c3)c(-c3ccsc3C#N)c3cc(F)ccc32)cc1 [Compound 36] :: 6.00 to 7.00
N#Cc1cccc(-c2c(-c3cccc(-c4ccc(C(=O)O)cc4Cl)c3)n(S(=O)(=O)c3ccc(C(F)F)cc3)c3ccc(F)cc23)c1 [C11/48] :: > 7.00
Cc1ccc(S(=O)(=O)n2c(-c3cccc(-c4ccc(CN5CCN(C)CC5)cc4)c3)c(-c3ccsc3C#N)c3cc(F)ccc32)cc1 [Compound 8] :: 6.00 to 7.00

[Q] Query (compound): Cc1ccc(S(=O)(=O)n2c(-c3cccc(-c4ccc(C(N)=O)cc4)c3)c(-c3ccsc3C#N)c3cc(F)ccc32)cc1 [6/2] ; field requested: pEC50
[A] > 7.00

[Q] // returns reported pEC50 for input Cc1ccc(S(=O)(=O)n2c(-c3cccc(-c4cncc(S(=O)(=O)CC(=O)O)c4)c3)c(-c3ccsc3C#N)c3ccccc32)cc1 [Compound 5]
[A] 5.00 to 6.00

[Q] What pEC50 value was documented for this compound, Cc1ccc(S(=O)(=O)n2c(-c3cccc(-c4ccc(CN(C)C)cc4Cl)c3)c(-c3ccsc3C#N)c3cc(F)ccc32)cc1 [Compound 2] ?
[A] > 7.00

Data provenance is patent US20260083704A1.
